Biological target: IKKε (Homo sapiens (Human), UniProt Q14164)
Sequence (Q14164 whole entry): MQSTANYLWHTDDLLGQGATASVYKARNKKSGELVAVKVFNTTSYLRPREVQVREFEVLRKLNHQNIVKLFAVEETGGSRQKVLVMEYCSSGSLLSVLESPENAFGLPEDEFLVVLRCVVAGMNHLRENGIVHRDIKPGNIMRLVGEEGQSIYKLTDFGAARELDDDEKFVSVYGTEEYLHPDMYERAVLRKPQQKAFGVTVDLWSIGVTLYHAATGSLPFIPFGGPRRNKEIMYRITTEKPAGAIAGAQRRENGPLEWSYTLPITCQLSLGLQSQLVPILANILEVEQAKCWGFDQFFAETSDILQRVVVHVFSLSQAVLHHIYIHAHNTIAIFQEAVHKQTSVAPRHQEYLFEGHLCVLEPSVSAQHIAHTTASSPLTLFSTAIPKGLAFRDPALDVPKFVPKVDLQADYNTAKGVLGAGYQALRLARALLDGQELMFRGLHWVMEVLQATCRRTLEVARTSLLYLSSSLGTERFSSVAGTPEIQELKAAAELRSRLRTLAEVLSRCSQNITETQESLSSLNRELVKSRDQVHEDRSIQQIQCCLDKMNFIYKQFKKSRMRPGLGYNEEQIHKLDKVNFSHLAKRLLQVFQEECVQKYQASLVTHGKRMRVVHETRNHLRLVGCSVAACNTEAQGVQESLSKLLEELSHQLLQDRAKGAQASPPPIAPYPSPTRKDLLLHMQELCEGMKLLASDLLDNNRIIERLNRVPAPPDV
Test: TR-FRET kinase assay, IKKε
Type: biochemical
Conditions: full length recombinant IKKε 0.3 nM, 2x Km ATP, 1 μM peptide, 240 min at 25° C.; geometric mean of minimum four determinations
IC50 strictly under 3 nM means 1; at 3 nM or over means 0.

[[record]]
molecule = "N#Cc1cc(-c2ncnc3[nH]c(-c4ccc(N5CCOCC5)cc4)nc23)ccc1OC1CCN(C=O)CC1"
category_label = 0

[[record]]
molecule = "N#Cc1cc(-c2ncnc3[nH]c(-c4ccc(N5CCOCC5)c(F)c4)cc23)ccc1OC1CCN(C(=O)CO)CC1"
category_label = 1

[[record]]
molecule = "CC1(COc2ccc(-c3ccnc4[nH]c(-c5ccc(N6CCOCC6)cc5)cc34)cc2C#N)COC1"
category_label = 0

[[record]]
molecule = "CN1CCN(C(=O)c2ccc(-c3cc4c(-c5ccc(OC6CCN(C(=O)CO)CC6)c(C#N)c5)ncnc4[nH]3)cc2)CC1"
category_label = 1

[[record]]
molecule = "N#Cc1cc(-c2ncnc3[nH]c(-c4ccc(OC(F)(F)F)cc4)cc23)ccc1OC1CCN(C(=O)CO)CC1"
category_label = 0

[[record]]
molecule = "COc1cc(-c2cc3c(-c4ccc(OC5CCN(C(=O)CO)CC5)c(C#N)c4)ncnc3[nH]2)ccc1N1CCOCC1"
category_label = 1

[[record]]
molecule = "COc1cc(-c2cc3c(-c4ccc(OC5CCN(C(=O)CO)CC5(F)F)c(C#N)c4)ncnc3[nH]2)ccc1N1CCN(C2COC2)CC1 (stereo not shown)"
category_label = 1


---

Biological target: IKKε (Homo sapiens (Human), UniProt Q14164)
Experiment: TR-FRET kinase assay, IKKε
Details: full length recombinant IKKε 0.3 nM, 2x Km ATP, 1 μM peptide, 240 min at 25° C.; geometric mean of minimum four determinations
pIC50: −log10 of the molar value.
pIC50 overview
metric-name: pIC50

[[record]]
compound = "N#Cc1cc(-c2ncnc3[nH]c(-c4ccc(N5CCOCC5)cc4)nc23)ccc1OC1CCNCC1 [Example 204]"
value_prefix = "="
measured_value = 7.08

[[record]]
compound = "N#Cc1cc(-c2ccnc3[nH]c(-c4ccccc4)cc23)ccc1OC1CCOCC1 [Example 83]"
value_prefix = "="
measured_value = 7.70

[[record]]
compound = "COc1cc(C#N)cc(-c2ccnc3[nH]c(-c4ccc(N5CCOCC5)cc4)cc23)c1 [Example 33]"
value_prefix = "<"
measured_value = 6.00

[[record]]
compound = "CC(C)NC(=O)c1cc2c(-c3ccc(OC4CCOCC4)c(C#N)c3)ccnc2[nH]1 [Example 60]"
value_prefix = "="
measured_value = 7.35

[[record]]
compound = "N#Cc1cc(-c2ncnc3[nH]c(-c4ccc(N5CCOCC5)cc4)nc23)ccc1OC1CCN(S(N)(=O)=O)CC1 [Example 262]"
value_prefix = "="
measured_value = 8.37

[[record]]
compound = "N#Cc1cc(-c2ccnc3[nH]c(-c4cc[nH]c(=O)c4)cc23)ccc1OC1CCOCC1 [Example 217]"
value_prefix = "="
measured_value = 7.46

[[record]]
compound = "CN1CCN(c2ccc(-c3cc4c(-c5ccc(OC6CCOCC6)c(C#N)c5)ncnc4[nH]3)cc2)CC1 [Example 219]"
value_prefix = "="
measured_value = 8.47

[[record]]
compound = "N#Cc1cc(-c2ccnc3[nH]c(-c4cnn(C5CCNCC5)c4)cc23)ccc1OC1CCOCC1 [Example 10]"
value_prefix = "="
measured_value = 8.76

[[record]]
compound = "N#Cc1cc(-c2ccnc3[nH]c(-c4ccc(N5CCOCC5)cc4)cc23)ccc1OC1CCNCC1 [Example 18]"
value_prefix = "="
measured_value = 7.48

[[record]]
compound = "COc1ccc(-c2cc3c(-c4ccc(OC5CCN(C(=O)CO)CC5)c(C#N)c4)ncnc3[nH]2)cn1 [Example 130]"
value_prefix = "="
measured_value = 7.97

[[record]]
compound = "N#Cc1cc(-c2ncnc3[nH]c(-c4cccc(N5CCOCC5)c4)cc23)ccc1N1CC(O)C1 [Example 110]"
value_prefix = "="
measured_value = 7.24

[[record]]
compound = "COc1ccc(-c2cc3c(-c4ccc(OC5CCNCC5)c(C#N)c4)ncnc3[nH]2)cc1 [Example 123]"
value_prefix = "="
measured_value = 7.18

[[record]]
compound = "N#Cc1cc(-c2ccnc3[nH]c(C#CCO)cc23)ccc1OC1CCOCC1 [Example 148]"
value_prefix = "="
measured_value = 6.69

[[record]]
compound = "COc1cc(-c2cc3c(-c4ccc(OC5CCS(=O)(=O)CC5)c(C#N)c4)ncnc3[nH]2)ccc1N1CCN(C2COC2)CC1 [Example 139]"
value_prefix = "="
measured_value = 7.60

[[record]]
compound = "N#Cc1cc(-c2ncnc3[nH]c(-c4ccc(Cn5ccnc5)cc4)cc23)ccc1OC1CCOCC1 [Example 114]"
value_prefix = "="
measured_value = 8.24

[[record]]
compound = "Cn1nccc1-c1cc2c(-c3ccc(OC4CCOCC4)c(C#N)c3)ccnc2[nH]1 [Example 181]"
value_prefix = "="
measured_value = 7.46


---

Entries annotated with measured IC50
Molecular target: IKKε (Homo sapiens (Human), UniProt Q14164)
Test: TR-FRET kinase assay, IKKε
Conditions: full length recombinant IKKε 0.3 nM, 2x Km ATP, 1 μM peptide, 240 min at 25° C.; geometric mean of minimum four determinations
metric-name: IC50

[[record]]
compound = "N#Cc1cc(-c2ccnc3[nH]c(-c4ccc(N5CCN(C6COC6)CC5)cc4)cc23)ncc1OC1CCN(C(=O)CO)CC1(F)F (stereo not drawn) [Example 176]"
metric_name = "IC50"
measured_value = "1.44 nM"

[[record]]
compound = "N#Cc1cc(-c2ncnc3[nH]c(-c4ccc(C5CCN(CC(F)(F)F)CC5)cc4)nc23)ccc1OC1CCN(C=O)CC1 [Example 259]"
metric_name = "IC50"
measured_value = "45.5 nM"

[[record]]
compound = "N#Cc1nc(-c2ccnc3[nH]c(-c4ccc(N5CCOCC5)cc4)nc23)ccc1OC1CCOCC1 [Example 304]"
metric_name = "IC50"
measured_value = "18.6 nM"

[[record]]
compound = "N#Cc1cc(-c2ccnc3[nH]c(-c4cnn(C5COC5)c4)cc23)ccc1OC1CCOCC1 [Example 6]"
metric_name = "IC50"
measured_value = "4.87 nM"

[[record]]
compound = "N#Cc1cc(-c2ccnc3[nH]c(C(=O)NC4CC4)cc23)ccc1OC1CCOCC1 [Example 59]"
metric_name = "IC50"
measured_value = "55.4 nM"

[[record]]
compound = "N#Cc1cc(-c2ncnc3[nH]c(-c4ccc(CN5CCOCC5)cc4)nc23)ccc1OC1CCOCC1 [Example 252]"
metric_name = "IC50"
measured_value = "4.85 nM"

[[record]]
compound = "N#Cc1cc(-c2ncnc3[nH]c(-c4ccc(CN5CCOCC5)cc4)nc23)ccc1OC1CCN(C(=O)C(F)F)CC1 [Example 266]"
metric_name = "IC50"
measured_value = "7.95 nM"

[[record]]
compound = "N#Cc1cc(-c2ccnc3[nH]c(-c4cccc(N5CCOCC5)c4)nc23)ccc1OC1CCOCC1 [Example 308]"
metric_name = "IC50"
measured_value = "18.1 nM"

[[record]]
compound = "N#Cc1cc(-c2cc3c(-c4ccc(OC5CCOCC5)c(C#N)c4)ccnc3[nH]2)ccc1OC1CCOCC1 [Example 62]"
metric_name = "IC50"
measured_value = "25.3 nM"

[[record]]
compound = "N#Cc1cc(-c2ncnc3[nH]c(-c4ccc(N5CCOCC5)cc4)nc23)ccc1OC1CCN(C(=O)CO)CC1 [Example 205]"
metric_name = "IC50"
measured_value = "4.71 nM"

[[record]]
compound = "CC(C)(C)OC(=O)N1CC[C@H](Oc2ccc(-c3ccnc4[nH]c(-c5ccc(N6CCOCC6)cc5)cc34)cc2C#N)C1 [Example 25]"
metric_name = "IC50"
measured_value = "306 nM"

[[record]]
compound = "N#Cc1cc(-c2ncnc3[nH]c(-c4cnc5c(c4)NCCO5)cc23)ccc1OC1CCOCC1 [Example 189]"
metric_name = "IC50"
measured_value = "7.99 nM"

[[record]]
compound = "CC(C)(C)OC(=O)N1CC[C@@H](Oc2ccc(-c3ccnc4[nH]c(-c5ccc(N6CCOCC6)cc5)cc34)cc2C#N)C1 [Example 17]"
metric_name = "IC50"
measured_value = "394 nM"

[[record]]
compound = "N#Cc1cc(-c2ccnc3[nH]c(-c4ccc(N5CCOCC5)cc4)nc23)ccc1OCC1CC1 [Example 301]"
metric_name = "IC50"
measured_value = "> 1000 nM"

[[record]]
compound = "N#CCC(=O)N1CC[C@@H](Oc2ccc(-c3ccnc4[nH]c(-c5ccc(N6CCOCC6)cc5)cc34)cc2C#N)C1 [Example 16]"
metric_name = "IC50"
measured_value = "13.8 nM"

